Target: human 11β-HSD2 (Homo sapiens, UniProt P80365)
Construct: The obtained PCR products of about 0.9 kbp, 1.2 kbp, and 0.9 kbp were subcloned into an expression vector pcDNA3.1+/Zeo; expressed in transfected cells
Sequence (P80365 1-405): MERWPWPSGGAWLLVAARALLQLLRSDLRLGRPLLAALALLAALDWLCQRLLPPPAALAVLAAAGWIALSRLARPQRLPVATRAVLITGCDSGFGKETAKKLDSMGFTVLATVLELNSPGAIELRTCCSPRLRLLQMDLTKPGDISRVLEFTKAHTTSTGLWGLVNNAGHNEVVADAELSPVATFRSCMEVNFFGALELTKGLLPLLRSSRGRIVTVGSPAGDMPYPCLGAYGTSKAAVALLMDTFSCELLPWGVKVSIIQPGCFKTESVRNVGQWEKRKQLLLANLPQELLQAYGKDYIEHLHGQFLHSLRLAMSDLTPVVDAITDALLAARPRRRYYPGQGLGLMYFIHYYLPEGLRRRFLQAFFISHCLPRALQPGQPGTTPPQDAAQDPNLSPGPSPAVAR
Test: Enzyme inhibitory activity, human 11β-HSD2 (lysate of stably expressing HEK293 cells, cortisol by competitive ELISA)
Assay type: biochemical
Conditions: Table 1; human 11β-HSD2, cell lysate, 37° C. for 1 hour; read-out: h HSD2 in vitro assay (IC50 uM)
endpoint_name: IC50 (µM)

{"compound": "CC1(C)C(=O)N(C2CCCCCCC2)N1c1cccc2ccccc12", "experimental_value": 5.5}

P. CC1(C)C(=O)N(C2C3CC4CC(C3)CC2C4)N1/C=C/c1ccccc1 (centres unmarked)
Q. CC1(C)C(=O)N(C2CCCCCCC2)N1Cc1ccc(F)cc1Cl
R. CC1(C)C(=O)N(C2C3CC4CC(C3)CC2C4)N1Cc1cc(F)ccc1Cl (centres unmarked)
Which order do these items take when sorted by rising IC50? List them. Dear reader, please state the labels in the requested order.
R, Q, P
(R: 3.2 µM, Q: 4.8 µM, P: 19 µM)

----------
biological target: human 11β-HSD1 (Homo sapiens); construct: The obtained PCR products of about 0.9 kbp, 1.2 kbp, and 0.9 kbp were subcloned into an expression vector pcDNA3.1+/Zeo; expressed in transfected cells; assay: Enzyme inhibitory activity, human 11β-HSD1 (lysate of stably expressing HEK293 cells, cortisol by competitive ELISA); assay type: biochemical; conditions: Table 2; human 11β-HSD1, cell lysate, 37° C. for 1 hour; read-out: h HSD1 in vitro assay (IC50 uM)
endpoint_name: IC50 (µM)

Reference set, count: 7
{"compound": "CC1C(=O)N(C2C3CC4CC(C3)CC2C4)N1Cc1ccccc1 (stereo not drawn)", "test_target": "human 11β-HSD1 (Homo sapiens)", "endpoint_name": "IC50", "u": "µM", "experimental_value": 0.79}
{"compound": "CC1(C)C(=O)N(C2C3CC4CC(C3)CC2C4)N1C(=O)c1ccccc1 (stereo not drawn)", "test_target": "human 11β-HSD1 (Homo sapiens)", "endpoint_name": "IC50", "u": "µM", "experimental_value": 0.8}
{"compound": "CC1(C)C(=O)N(C2C3CC4CC(C3)CC2C4)N1Cc1cccc2c1OCO2 (stereo not drawn)", "test_target": "human 11β-HSD1 (Homo sapiens)", "endpoint_name": "IC50", "u": "µM", "experimental_value": 0.23}
{"compound": "CC1(C)C(=O)N(C2C3CC4CC(C3)CC2C4)N1Cc1ccc(Cl)cc1 (stereo not drawn)", "test_target": "human 11β-HSD1 (Homo sapiens)", "endpoint_name": "IC50", "u": "µM", "experimental_value": 0.058}
{"compound": "CC1(C)C(=O)N(C2CC3CCC2C3)N1Cc1ccccc1Cl (stereo not drawn)", "test_target": "human 11β-HSD1 (Homo sapiens)", "endpoint_name": "IC50", "u": "µM", "experimental_value": 0.15}
{"compound": "CC1(C)C(=O)N(C2C3CC4CC(C3)CC2C4)N1C(=O)c1ccc(Br)cc1 (stereo not drawn)", "test_target": "human 11β-HSD1 (Homo sapiens)", "endpoint_name": "IC50", "u": "µM", "experimental_value": 0.75}
{"compound": "CC1(C)C(=O)N(C2C3CC4CC2CC(C(N)=O)(C4)C3)N1Cc1ccccc1Cl (stereo not drawn)", "test_target": "human 11β-HSD1 (Homo sapiens)", "endpoint_name": "IC50", "u": "µM", "experimental_value": 0.13}

a. CC1(C)C(=O)N([C@H]2C3CC4CC2C[C@](O)(C4)C3)N1c1ccccc1O
b. CC1(C)C(=O)N(C2CCCCCC2)N1Cc1cc(F)ccc1Cl
Would you let me know which has the greater IC50 value, a or b ? # respond with the chosen item's label
a

----------
target: human 11β-HSD1 (Homo sapiens, UniProt P28845); construct: The obtained PCR products of about 0.9 kbp, 1.2 kbp, and 0.9 kbp were subcloned into an expression vector pcDNA3.1+/Zeo; expressed in transfected cells; assay: Enzyme inhibitory activity, human 11β-HSD1 (lysate of stably expressing HEK293 cells, cortisol by competitive ELISA); assay type: biochemical; conditions: Table 1; human 11β-HSD1, cell lysate, 37° C. for 1 hour; read-out: h HSD1 in vitro assay (IC50 uM)
Sequence (P28845 whole entry): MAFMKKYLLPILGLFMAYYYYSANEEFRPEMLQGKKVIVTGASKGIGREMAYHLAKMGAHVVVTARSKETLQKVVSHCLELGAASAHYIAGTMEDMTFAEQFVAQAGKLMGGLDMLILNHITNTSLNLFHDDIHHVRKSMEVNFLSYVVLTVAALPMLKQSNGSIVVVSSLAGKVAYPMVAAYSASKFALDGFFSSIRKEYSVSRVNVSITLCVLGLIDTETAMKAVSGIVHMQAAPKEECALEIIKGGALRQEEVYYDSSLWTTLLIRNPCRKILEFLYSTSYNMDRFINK
endpoint_name: IC50 (µM)

{"compound": "CC1(C)C(=O)N([C@H]2C3CC4CC2C[C@](O)(C4)C3)N1c1ccc(F)c2ccccc12 [Example 238]", "IC50 / µM": 0.02}

1. CC1(C)C(=O)N([C@H]2C3CC4CC2C[C@@](Cl)(C4)C3)N1c1cccc(Cl)c1Cl [Example 256]
2. CC1(C)C(=O)N([C@H]2C3CC4CC2C[C@](Cl)(C4)C3)N1c1cccc(Cl)c1Cl [Example 251]
3. CC1(C)C(=O)N(C2CCCCCCC2)N1c1cccc2ccccc12 [Example 222]
// ranking: key=IC50, reverse=True Dear reader, please state the labels in the requested order.
1, 2, 3
(1: 0.26 µM, 2: 0.03 µM, 3: 0.019 µM)

----------
target: mouse 11β-HSD1 (Mus musculus); construct: The obtained PCR products of about 0.9 kbp, 1.2 kbp, and 0.9 kbp were subcloned into an expression vector pcDNA3.1+/Zeo; expressed in transfected cells; test: Enzyme inhibitory activity, mouse 11β-HSD1 (lysate of stably expressing CHO-K1 cells, cortisol by competitive ELISA); assay type: biochemical; conditions: Table 2; mouse 11β-HSD1, cell lysate, 37° C. for 1 hour; read-out: m HSD1 in vitro assay (IC50 uM)
Sequence (P50172 whole entry): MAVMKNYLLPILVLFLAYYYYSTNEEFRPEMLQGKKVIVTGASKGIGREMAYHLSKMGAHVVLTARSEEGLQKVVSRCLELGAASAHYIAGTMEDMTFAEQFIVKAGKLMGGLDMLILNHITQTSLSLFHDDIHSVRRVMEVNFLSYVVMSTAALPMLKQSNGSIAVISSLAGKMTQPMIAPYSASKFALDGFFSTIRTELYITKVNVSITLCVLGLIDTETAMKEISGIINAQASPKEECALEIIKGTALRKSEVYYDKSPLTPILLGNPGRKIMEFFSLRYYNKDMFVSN
endpoint_name: IC50 (µM)

Reference set, count: 5
{"molecule": "CC1(C)C(=O)N([C@H]2C3CC4CC2C[C@](C(N)=O)(C4)C3)N1c1cccc2ccccc12 [Example 275]", "IC50 [µM]": 0.25}
{"molecule": "Cc1ccc(F)cc1C(=O)N1N(C2C3CC4CC(C3)CC2C4)C(=O)C1(C)C (centres unmarked) [Example 125]", "IC50 [µM]": 0.42}
{"molecule": "COc1cccc(CN2N(C3C4CC5CC(C4)CC3C5)C(=O)C2(C)C)c1 (centres unmarked) [Example 54]", "IC50 [µM]": 0.036}
{"molecule": "CSc1ccccc1CN1N(C2C3CC4CC(C3)CC2C4)C(=O)C1(C)C (centres unmarked) [Example 60]", "IC50 [µM]": 0.15}
{"molecule": "CC1(C)C(=O)N(C2C3CC4CC(C3)CC2C4)N1c1ccc(O)cc1 (centres unmarked) [Example 215]", "IC50 [µM]": 0.54}

1. CC1(C)C(=O)N(C2C3CC4CC(C3)CC2C4)N1C(=O)c1ccccc1 (centres unmarked) [Example 96]
2. CC1(C)C(=O)N(C2C3CC4CC(C3)CC2C4)N1Cc1cc(Cl)ccc1Cl (centres unmarked) [Example 44]
Would you let me know which has the greater IC50 value, 1 or 2 ? # respond with the chosen item's label
1

----------
biological target: human 11β-HSD1 (Homo sapiens, UniProt P28845); construct: The obtained PCR products of about 0.9 kbp, 1.2 kbp, and 0.9 kbp were subcloned into an expression vector pcDNA3.1+/Zeo; expressed in transfected cells; assay: Enzyme inhibitory activity, human 11β-HSD1 (lysate of stably expressing HEK293 cells, cortisol by competitive ELISA); format: biochemical; conditions: Table 2; human 11β-HSD1, cell lysate, 37° C. for 1 hour; read-out: h HSD1 in vitro assay (IC50 uM)
endpoint_name: IC50 (µM)

{"compound": "Cc1c(F)cccc1CN1N(C2C3CC4CC(C3)CC2C4)C(=O)C1(C)C (centres unmarked)", "test_target": "human 11β-HSD1 (Homo sapiens, UniProt P28845)", "u": "µM", "experimental_value": 0.026}
{"compound": "CC1(C)C(=O)N(C2C3CC4CC(C3)CC2C4)N1c1csc2ccccc12 (centres unmarked)", "test_target": "human 11β-HSD1 (Homo sapiens, UniProt P28845)", "u": "µM", "experimental_value": 0.44}
{"compound": "CC1(C)C(=O)N(C2C3CC4CC(C3)CC2C4)N1Cc1cccc(Cl)c1F (centres unmarked)", "test_target": "human 11β-HSD1 (Homo sapiens, UniProt P28845)", "u": "µM", "experimental_value": 0.25}

a. CC1(C)C(=O)N(C2CCCCCC2)N1Cc1cc(Cl)ccc1Cl
b. CC1(C)C(=O)N(C2C3CC4CC(C3)CC2C4)N1CCc1ccccc1 (centres unmarked)
Param metric = IC50; output whichever of a , b has the minimum value. # respond with the chosen item's label
a
(a: 0.053 µM, b: 0.55 µM)

Reference for the values: patent US8252781B2
